Source listed as patent US20230089867A1.

# SYSTEM_TESTED: human PCSK9 (Homo sapiens, UniProt Q8NBP7)
# Sequence (Q8NBP7 153-692): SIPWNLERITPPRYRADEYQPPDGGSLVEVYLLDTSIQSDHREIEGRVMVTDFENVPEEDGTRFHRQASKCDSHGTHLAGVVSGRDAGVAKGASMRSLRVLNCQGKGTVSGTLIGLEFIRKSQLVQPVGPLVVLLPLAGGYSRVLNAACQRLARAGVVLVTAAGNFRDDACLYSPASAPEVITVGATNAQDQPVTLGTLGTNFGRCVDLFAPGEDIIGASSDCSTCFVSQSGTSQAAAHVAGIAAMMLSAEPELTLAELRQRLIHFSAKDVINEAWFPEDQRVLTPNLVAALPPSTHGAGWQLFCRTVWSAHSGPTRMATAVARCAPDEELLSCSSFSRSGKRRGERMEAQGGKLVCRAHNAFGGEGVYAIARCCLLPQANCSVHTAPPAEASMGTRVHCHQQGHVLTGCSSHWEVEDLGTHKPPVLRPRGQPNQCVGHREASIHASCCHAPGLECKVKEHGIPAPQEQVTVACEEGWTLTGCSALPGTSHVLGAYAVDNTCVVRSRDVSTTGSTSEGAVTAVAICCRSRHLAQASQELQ
# Sequence (Q8NBP7 31-152 partner limits assumed): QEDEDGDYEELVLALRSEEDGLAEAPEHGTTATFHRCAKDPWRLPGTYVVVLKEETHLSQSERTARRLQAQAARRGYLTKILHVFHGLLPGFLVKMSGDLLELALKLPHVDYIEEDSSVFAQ
# ASSAY_PROTOCOL: PCSK9 ligand binding TR-FRET assay (interference with binding of human PCSK9 to human LDLR)
# MEASUREMENT_SETUP: PCSK9 FRET assay, efficacy (Amax); 100% = 1 uM unlabeled human PCSK9, 0% = DMSO
MEASURED_METRIC: Max % inhibition (%)
Your answer should be a plain number; it is taken to be in %.

COC[C@@H]1NC(=O)[C@H](C)N(Cc2ccc(Cl)cc2Oc2ccc(-c3cnc(CN4CCC4)n3C)cc2)C(=O)C[C@@H](Cc2ccccc2)C(=O)N(C)[C@H]2CCCC[C@@H]2NC(=O)C[C@H](Cc2ccc(Cl)cc2)N(C)C1=O	92.71

Could you now look at the following molecule, please?
Query: Could you share which Max % inhibition value was measured for C[C@@H]1CC(=O)N(Cc2ccc(Cl)cc2Oc2ccc(-c3cnc(CN(C)C)n3C)cc2)[C@@H](C)C(=O)N[C@@H](CO)C(=O)N(C)[C@@H](Cc2ccc(Cl)cc2)CC(=O)NC[C@H](C)N(C)C1=O ?
Result: 84.54

* * *

# SYSTEM_TESTED: UniProt:Q8NBP7
# ASSAY_PROTOCOL: PCSK9 ligand binding TR-FRET assay (interference with binding of human PCSK9 to human LDLR)
# MEASUREMENT_SETUP: TR-FRET; human PCSK9 Alexa Fluor 647 / human LDLR extracellular domain-Europium Kryptate; read-out: PCSK9 FRET Assay IC50
We begin with a simple list: items and their reported IC50.
// note: answer is a bare numeric in nM

Answered examples (3):
COC[C@@H]1NC(=O)[C@@H](C)N(Cc2ccc(Cl)cc2Oc2ccc(-c3cnc(CN(C)C)n3C)cc2)C(=O)C[C@@H](Cc2ccccc2)C(=O)N(C)[C@@H](C)CNC(=O)C[C@H](Cc2ccc(Cl)cc2)N(C)C1=O	74.1
COC[C@@H]1NC(=O)[C@H](C)N(Cc2ccc(Cl)cc2Oc2ccc(-c3cnc(CN4CC[C@@H](F)C4)n3C)cc2)C(=O)C[C@@H](Cc2ccccc2)C(=O)N(C)[C@@H](C)CNC(=O)C[C@H](Cc2ccc(Cl)cc2)N(C)C1=O	2.9
COC[C@@H]1NC(=O)[C@H](C)N(Cc2ccc(Cl)cc2Oc2ccc(-c3cnc(CN4CCCC4)n3C)cc2)C(=O)C[C@@H](Cc2ccccc2)C(=O)N(C)[C@@H]2CCOC[C@H]2NC(=O)C[C@H](Cc2ccc(Cl)cc2)N(C)C1=O	307

Next, consider the following compound.
Query: Could you share which IC50 value was measured for CN(C)Cc1ncc(-c2ccc(Oc3cc(Cl)ccc3CN3C(=O)C[C@@H](Cc4ccccc4)C(=O)N(C)[C@H]4CCCC[C@@H]4NC(=O)C[C@H](Cc4ccc(Cl)cc4)N(C)C(=O)[C@H](CO)NC(=O)[C@H]3CCC(=O)OC(C)(C)C)cc2)n1C ?
Result: 2.6

* * *

# SYSTEM_TESTED: human PCSK9 (Homo sapiens, UniProt Q8NBP7)
# ASSAY_PROTOCOL: PCSK9 ligand binding TR-FRET assay (interference with binding of human PCSK9 to human LDLR)
# MEASUREMENT_SETUP: PCSK9 FRET assay, efficacy (Amax); 100% = 1 uM unlabeled human PCSK9, 0% = DMSO
MEASURED_METRIC: Max % inhibition (%)
Give a bare numeral; the unit % is implied.

COC[C@@H]1NC(=O)[C@H](C)N(Cc2ccc(Cl)cc2Oc2ccc(-c3cnc([C@H](C)N(C)C)n3C)cc2)C(=O)C[C@@H](Cc2ccccc2)C(=O)N(C)[C@H]2CCCC[C@@H]2NC(=O)C[C@H](Cc2ccc(Cl)cc2)N(C)C1=O	72.66
COC[C@@H]1NC(=O)[C@H](C)N(Cc2ccccc2Oc2ccc(-c3cnc(CN(C)C)n3C)cc2)C(=O)C[C@@H](Cc2ccccc2)C(=O)N(C)[C@@H](C)CNC(=O)C[C@H](Cc2ccc(Cl)cc2)N(C)C1=O	98.16
COC[C@@H]1NC(=O)[C@H](C)N(Cc2ccc(Cl)cc2Oc2ccc(-c3cnc(CN4CCOCC4)n3C)cc2)C(=O)C[C@@H](Cc2ccccc2)C(=O)N(C)[C@@H](C)CNC(=O)C[C@H](Cc2ccc(Cl)cc2)N(C)C1=O	93.20

In the following, a different compound is considered.
Query: Record request: Max % inhibition value, item COC[C@@H]1NC(=O)[C@H](C)N(Cc2ccc(Cl)cc2Oc2ccc(-c3cnc(CN4CCCC4)n3C)cc2)C(=O)C[C@@H](Cc2ccn(C(F)F)n2)C(=O)N(C)[C@@H](C)CNC(=O)C[C@H](Cc2ccc(Cl)cc2)N(C)C1=O
Result: 103.93
